- system_name: Aryl hydrocarbon receptor (Homo sapiens) (UniProt P35869)
- Sequence (P35869 whole entry, looked up): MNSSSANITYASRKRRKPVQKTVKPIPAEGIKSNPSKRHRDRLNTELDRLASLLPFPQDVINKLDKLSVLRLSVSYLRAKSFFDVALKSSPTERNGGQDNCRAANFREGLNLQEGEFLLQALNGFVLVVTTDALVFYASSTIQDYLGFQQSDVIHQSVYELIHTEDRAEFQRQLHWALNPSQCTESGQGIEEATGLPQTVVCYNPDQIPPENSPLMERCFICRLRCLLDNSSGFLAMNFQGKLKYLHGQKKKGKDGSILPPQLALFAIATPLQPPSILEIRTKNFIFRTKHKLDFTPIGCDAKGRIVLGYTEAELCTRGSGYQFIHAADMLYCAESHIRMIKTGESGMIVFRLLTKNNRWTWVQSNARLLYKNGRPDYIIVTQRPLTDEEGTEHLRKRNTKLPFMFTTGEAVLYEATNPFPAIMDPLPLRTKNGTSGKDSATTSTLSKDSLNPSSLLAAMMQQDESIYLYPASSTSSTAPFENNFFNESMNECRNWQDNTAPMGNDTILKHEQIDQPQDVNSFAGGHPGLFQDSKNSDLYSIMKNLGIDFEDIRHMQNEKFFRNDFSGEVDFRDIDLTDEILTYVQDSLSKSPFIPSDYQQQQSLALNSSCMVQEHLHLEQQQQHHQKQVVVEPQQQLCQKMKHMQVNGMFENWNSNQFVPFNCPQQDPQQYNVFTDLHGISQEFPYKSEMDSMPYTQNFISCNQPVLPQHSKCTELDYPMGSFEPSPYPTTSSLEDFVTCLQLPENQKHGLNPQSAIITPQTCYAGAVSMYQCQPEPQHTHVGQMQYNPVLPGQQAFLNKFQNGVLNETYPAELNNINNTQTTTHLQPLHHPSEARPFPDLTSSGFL
- method_description: ATG_Ahr_CIS: Attagene CIS-FACTORIAL HepG2 Assay for human Aryl Hydrocarbon Receptor (Ahr) (AID 2282930)
- condition_description: HepG2 AhR cis-factorial reporter transcription; actives raise or lower the signal
Active and inactive are the calls of the source. The calls were made as follows: active = hit-call score of the fitted dose curve at least 0.9, where 1 is the maximum; inactive = score below 0.9.
Your response should consist of one outcome taken from T for active, F for inactive

Request: Fill in: this test's call for CSc1ccc(Cl)cc1 is ___
Response: F

Request: Continue with O=C=Nc1cccc2c(N=C=O)cccc12
Response: T

Request: Then OCC(O)CC(F)(F)C(F)(F)C(F)(F)C(F)(F)C(F)(F)C(F)(F)C(F)(F)C(F)(F)F (centres undefined) ?
Response: F

Request: Again, but for C=CCOC(=O)CC(C)C
Response: F

---

- Read-out: Vascular cell adhesion molecule 1 (VCAM1), VCAM1 (gene 7412)
- method_description: BSK_4H_VCAM1: BioMAP Diversity Plus: 4H Assay for Vascular cell adhesion molecule 1 (VCAM1) Biomarker Activity (AID 2283033)
- condition_description: primary human endothelial cells (HUVEC); actives raise or lower the signal
Calls of active or inactive are those of the source. Rule for the calls: active = hit-call score of the fitted dose curve at least 0.9, where 1 is the maximum; inactive = score below 0.9.
Select the matching outcome among y for active, n for inactive

> print(dat)
                                smiles.data  class.label
1                 OCC(F)(F)C(F)(F)C(F)(F)CO            n
2         O=C(O)C(F)(F)C(F)(F)C(F)(F)C(=O)O            n
3  O=C(O)C(F)(F)C(F)(F)C(F)(F)OC(F)(C(F)(F)F)C(F)(F)F            n
4  OCC(F)(F)C(F)(F)C(F)(F)C(F)(F)C(F)(F)C(F)(F)CO            n
5  CCN(CC)c1ccc2c(c1)Oc1cc(N(CC)CC)ccc1C21OC(=O)c2ccccc21            n

Request: Just curious, what result did O=C1C=CC(=O)N1c1ccc(Cc2ccc(N3C(=O)C=CC3=O)cc2)cc1 get here?
Response: y

Request: O=C(Cl)C(F)(F)C(F)(F)C(F)(F)C(F)(F)C(F)(F)C(F)(F)F , same question.
Response: n

Request: Also need Nc1cc([N+](=O)[O-])cc(Cl)c1O , thanks.
Response: n

---

- method_description: ATG_TA_CIS: Attagene CIS-FACTORIAL HepG2 Assay for human TA Basal Promoter (AID 2282964)
- condition_description: HepG2 Attagene CIS-factorial TA basal promoter reporter; actives raise or lower the signal
Activity calls are given as the source filed them. The calls were made as follows: active = hit-call score of the fitted dose curve at least 0.9, where 1 is the maximum; inactive = score below 0.9.
Outcome field: choose from 1 (yes) for active, 0 (no) for inactive

Solved entries:
compound	class_label
CCn1c2ccccc2c2ccccc21	0 (no)
COC(=O)c1ccc(C=O)cc1	0 (no)
CCN=c1cc2oc3cc(NCC)c(C)cc3c(-c3ccccc3C(=O)OCC)c-2cc1C	1 (yes)

Request: Called result for CCC(Cc1c(I)cc(I)c(N)c1I)C(=O)O (stereo unspecified)
Response: 0 (no)

Request: Lookup CCOC(=O)CCC(C)=O
Response: 0 (no)

Request: Also need O=C1C=CC(=O)N1c1ccc(Cc2ccc(N3C(=O)C=CC3=O)cc2)cc1 , thanks.
Response: 0 (no)

Request: Same again, this time with Cc1ccc(S(=O)(=O)C(I)I)cc1
Response: 0 (no)

Request: Next entry: CCN(CC)c1ccc(C=O)c(O)c1
Response: 0 (no)

Request: Similarly, CCCCC(CC)COC(=O)c1ccc(N(C)C)cc1 (stereo unspecified) ?
Response: 0 (no)

Request: And what about the compound CO[Si](C)(CCC(F)(F)C(F)(F)C(F)(F)C(F)(F)C(F)(F)C(F)(F)F)OC ?
Response: 0 (no)

Request: And then CC(C)Nc1ccc(NC(C)C)c2c1C(=O)c1ccccc1C2=O , what is it?
Response: 0 (no)

Request: Queued: CC(C)(C)c1cc(CCC(=O)OCC(COC(=O)CCc2cc(C(C)(C)C)c(O)c(C(C)(C)C)c2)(COC(=O)CCc2cc(C(C)(C)C)c(O)c(C(C)(C)C)c2)COC(=O)CCc2cc(C(C)(C)C)c(O)c(C(C)(C)C)c2)cc(C(C)(C)C)c1O
Response: 0 (no)

Request: Also check NC(=O)C(F)(F)C(F)(F)C(F)(F)C(F)(F)C(N)=O
Response: 0 (no)

Request: Same for O=C1c2ccccc2C(=O)c2c(Cl)cccc21
Response: 0 (no)

Request: Same question, CC(C)(C)C(=O)C1C(=O)c2ccccc2C1=O this time
Response: 0 (no)

Request: Same question, CCCCCCCC/C=C\CCCCCCCC(=O)N(C)CC(=O)O this time
Response: 0 (no)

---

- Read-out: Interleukin 2 (IL2), IL2 (gene 3558)
- method_description: BSK_BT_xIL2: BioMAP Diversity Plus: BT Assay for Interleukin 2 (IL2) Biomarker Activity (AID 2284245)
- condition_description: primary human B cells with PBMC
The source made the active and inactive calls. Rule for the calls: active = hit-call score of the fitted dose curve at least 0.9, where 1 is the maximum; inactive = score below 0.9.
Respond with a class label; see active, inactive

These solved cases illustrate the format of a correct answer.
> print(dat)
                                   molecule  class.label
1              Nc1cc([N+](=O)[O-])cc(Cl)c1O     inactive
2              CCN(CC)c1ccc(N=Nc2ccccc2)cc1       active
3  C[Si](Cl)(Cl)CCC(F)(F)C(F)(F)C(F)(F)C(F)(F)C(F)(F)C(F)(F)F     inactive
4  O=C1c2c(O)ccc(Nc3ccc(CCO)cc3)c2C(=O)c2c([N+](=O)[O-])ccc(O)c21     inactive

Request: How was OCC(O)CC(F)(F)C(F)(F)C(F)(F)C(F)(F)F (stereo unspecified) classified in this test?
Response: inactive

Request: Another molecule: FC(F)(F)C(F)(F)C(F)(F)CC1CO1 (stereo unspecified)
Response: inactive

Request: Next: CNS(=O)(=O)C(F)(F)C(F)(F)C(F)(F)C(F)(F)C(F)(F)C(F)(F)C(F)(F)C(F)(F)F
Response: inactive

Request: O=C(O)C(F)(F)C(F)(F)C(F)(F)C(=O)O ?
Response: inactive

Request: Next record, please: CCN(CC)c1ccc2c(c1)Oc1cc(N(CC)CC)ccc1C21OC(=O)c2ccccc21
Response: inactive

Request: Same question, NC(=O)C(F)(F)C(F)(F)C(F)(F)F this time
Response: inactive

Request: Record: O=S(=O)(O)CCC(F)(F)C(F)(F)C(F)(F)C(F)(F)F
Response: inactive

---

- method_description: BSK_3C_Proliferation: Cell Proliferation Assessment in the BioMAP Diversity Plus: 3C Assay (AID 2283006)
- condition_description: primary human endothelial cells (HUVEC)
Calls of active or inactive are those of the source. The calls were made as follows: active = hit-call score of the fitted dose curve at least 0.9, where 1 is the maximum; inactive = score below 0.9.
Please reply with one of these outcomes: active, inactive

Completed entries (count: 3):
> print(dat)
                                smiles.data  class.label
1  O=S(=O)(Cl)C(F)(F)C(F)(F)C(F)(F)C(F)(F)C(F)(F)C(F)(F)C(F)(F)C(F)(F)F     inactive
2   C=C(C)C(=O)OCC(F)(F)C(F)(F)C(F)(F)C(F)F     inactive
3  O=S(=O)(O)CCC(F)(F)C(F)(F)C(F)(F)C(F)(F)C(F)(F)C(F)(F)C(F)(F)C(F)(F)F     inactive

Request: Called result for CO[Si](C)(CCC(F)(F)C(F)(F)C(F)(F)C(F)(F)C(F)(F)C(F)(F)F)OC
Response: inactive

Request: And then Cc1cc(C)c(O)c(C(C)(C)C)c1 , what is it?
Response: active

---

- Read-out: Vascular cell adhesion molecule 1 (VCAM1), VCAM1 (gene 7412)
- method_description: BSK_MyoF_VCAM1: BioMAP Diversity Plus: MyoF Assay for Vascular cell adhesion molecule 1 (VCAM1) Biomarker Activity (AID 2284231)
- condition_description: primary human lung fibroblasts
- Procedure: BSK_MyoF is a cell-based, multiplexed-readout assay that uses lung fibroblasts, […], with measurements taken at 24 hours after chemical dosing in a microplate: 96-well plate.BSK_MyoF_VCAM1 is an assay component measured in the BSK_MyoF assay. […] The levels of cell surface (or secreted, indicated by the prefix "s") biomarker endpoints were measured by ELISA. […] Plates were read after 6 h.
The source made the active and inactive calls. How the source made its calls: active means hit-call score of the fitted dose curve at least 0.9, where 1 is the maximum; inactive means score below 0.9.
Pick one: 1.0 (active), 0.0 (inactive)

Consider the following illustrative entries.
> print(dat)
                                   compound  class.label
1  C[C@]12CC[C@H]3C(=CCc4cc(O)ccc43)[C@@H]1CCC2=O          0.0
2                                 Cc1cnccn1          0.0
3                   NC(O)(C(F)(F)F)C(F)(F)F          0.0
4  CN(C(=O)C(F)(F)C(F)(F)C(F)(F)F)[Si](C)(C)C          0.0

Request: GET /call?item= OCC(F)(F)C(F)(F)C(F)(F)CO returns the recorded outcome of this test.
Response: 0.0
